Several reports have described IC50 for human LTA4 hydrolase (Homo sapiens, UniProt P09960); a selection of those results is presented here.

{"columns": ["molecule", "system.tested", "measure.unit", "IC50"],
 "data": [
  ["COCC(=O)N1CCN(Cc2cn3cc(Oc4ccc(-c5ccn[nH]5)cc4)ccc3n2)CC1", "human LTA4 hydrolase (Homo sapiens, UniProt P09960)", "nM", 0.66],
  ["O=C1CC[C@H](COc2ccc(Oc3ccc(-c4ccn[nH]4)cc3)cc2)N1", "human LTA4 hydrolase (Homo sapiens, UniProt P09960)", "nM", 0.2],
  ["Cc1ncsc1CCOc1ccc(Oc2ccc(-c3ccn[nH]3)cc2)cc1", "human LTA4 hydrolase (Homo sapiens, UniProt P09960)", "nM", 11.2],
  ["c1cc(-c2ccc(Oc3ccc4[nH]c(CNCC5CCCO5)nc4c3)cc2)[nH]n1 (stereo not drawn)", "human LTA4 hydrolase (Homo sapiens, UniProt P09960)", "nM", 0.54],
  ["CC(C)(C)C(=O)N1CCN(Cc2nc3cc(Oc4ccc(-c5ccn[nH]5)cc4)ccc3[nH]2)CC1", "human LTA4 hydrolase (Homo sapiens, UniProt P09960)", "nM", 0.16],
  ["CN(C)CCn1cc2cc(Oc3ccc(-c4ccn[nH]4)cc3)ccc2n1", "human LTA4 hydrolase (Homo sapiens, UniProt P09960)", "nM", 0.28]
]}
